In this section, each of the binders is paired with its reported OD450.
# measured.on: Peptide 1: Biotin-…-[Tyr(PC)]-acid
# Sequence (peptide, as listed by the source): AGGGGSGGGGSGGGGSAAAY
# assay.text: scFv ELISA
Write down the numeric answer in OD450 and omit the unit.

binder	recorded.number
PcOxP_DB04_E12 (scFv, V domains shown, scFv in periplasmic extract) VH: EVQLLESGGGLVQPGGSLRLSCAASGFTFSDFYMEWVRQAPGKGLEWVAASRNKANDYTTEYADSVKGRFTISRDNSKNTLYLQMNSLRAEDTAVYYCARDYYGSSYWYFDVWGQGTLVTVSS VL: DIVMTQSPDSLAVSLGERATINCTASESLYSSKHKVHYLAWYQQKPGQPPKLLIYGASNRVIGVPDRFSGSGSGTDFTLTISSLQAEDVAVYYCAQFYIYPLTFGGGTKVEIK	1.03

Ask | Request the reported OD450 associated with PcOxP_DB02_F02 (scFv, V domains shown, scFv in periplasmic extract) VH: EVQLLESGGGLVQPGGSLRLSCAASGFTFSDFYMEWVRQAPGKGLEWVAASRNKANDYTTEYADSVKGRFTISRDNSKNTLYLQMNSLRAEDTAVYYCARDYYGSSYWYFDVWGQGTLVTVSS VL: DIQMTQSPSSLSASVGDRVTITCFASESLYSSKHKVHYLAWYQQKPGKAPKLLIYGASNRGIGVPSRFSGSGSGTDFTLTISSLQPEDFATYYCAQFYSYPLTFGGGTKVEIK
Reply | 0.37
